- System: 786-0 renal
- experimentNotes: NCI-60 one-dose screen, 48 h (100 = growth as untreated, 0 = no growth, -100 = all killed)
- experimentalParameters: 10 µM unless noted
- Protocol: Cells are grown in 96 well plates and exposed to the test compound for 48 hours. Compounds are tested at a single concentration, which is 10^-5 M for most compounds. The reported endpoint is percent growth (GI% or GIPRCNT), where numbers from 0 - 100% represent growth inhibition, and numbers from -100% - 0 represent cell death. For example, a value of 40 represents 60% growth inhibition. A value of 0 means no net growth occurred over the course of the experiment. […]
About 83,000 compounds went through this panel and 20% of them were active in at least one assay; those are over-represented in the sample as a whole.
Categories are assigned from the measured growth using these intervals: A (below 20%), B (20% to below 90%), C (90% or more)

Worked examples, 4 compounds total:
COC(=O)c1ccc(NC2=C/C(=N/S(=O)(=O)c3ccc(C(=O)O)cc3)c3ccccc3C2=O)cc1: A
C#CC(=O)N(c1ccc(OC)cc1OC)C(C(=O)NCC(=O)OCC)c1cccs1 (centres undefined): A
COc1cccc(/C=C(/C)c2ccc3cccc(OC)c3[o+]2)c1O: C
CN1CCN(Cc2ccc(NC(=O)c3cncc(C#Cc4cnn5cccnc45)c3)cc2C(F)(F)F)CC1: B

Here is the next item to consider.
Class? Entry: `COc1ccc(-n2c(SCc3nnc(NC(=O)c4ccc(Br)cc4)s3)nc3cc(OC)c(OC)cc3c2=O)cc1`
C
